Assay: qHTS of pediatric cancer cell lines to identify multiple opportunities for drug repurposing: Primary screen for NB-EBc1 cells (AID 1347095)
Settings: NB-EBc1 neuroblastoma viability, CellTiter-Glo luminescence, 48 h; series mostly up to 46 µM
Records with an inconclusive call do not appear. Activity calls are given as the source filed them. Calls follow the shape of the dose curve; as a rule, active = well fitted cell-killing curve with a large enough effect; inconclusive = small, poorly fitted or top-dose-only effect; inactive = no such curve, though single readings can be large or run the other way.
Thanks in advance; please answer with one of these: active, inactive

{"CHEM_SMILES": "O=C(O)CCc1nc(-c2ccccc2)c(-c2ccccc2)o1", "CLASS_NAME": "inactive"}
{"CHEM_SMILES": "CC(=O)O[C@]1(C(C)=O)CC[C@H]2[C@@H]3C=C(Cl)C4=CC(=O)[C@@H]5C[C@@H]5[C@]4(C)[C@H]3CC[C@@]21C", "CLASS_NAME": "inactive"}
{"CHEM_SMILES": "CCCCC1C(=O)N(c2ccccc2)N(c2ccccc2)C1=O", "CLASS_NAME": "inactive"}
{"CHEM_SMILES": "N#CC(=C(N)Sc1ccccc1N)C(C#N)=C(N)Sc1ccccc1N", "CLASS_NAME": "inactive"}

Read the next record carefully.
// query What call does the record list for "N[C@H](CSC(c1ccccc1)(c1ccccc1)c1ccccc1)C(=O)O" ?
// result active

* * *

Test: qHTS drug screen for cell cycle checkpoint inhibitors in PARPi-resistant BRCA-mutant ovarian cancer cell lines. (AID 1963452)
Conditions: PEO1/OlaR viability, CellTiter-Glo luminescence, 96 h; stronger effect = lower value
Binary label based on Z-AUC with cut-off 0.9: below gives fulfilled, not below gives not fulfilled.

{"COMPOUND": "COc1cccc2c1CCCC2CCCN1CCN(C2CCCCC2)CC1 (stereo not given)", "CLASS_NAME": "not fulfilled"}

// query Quick check: does "O=C1C[C@@H](c2ccc(O)cc2)Oc2cc(O)cc(O)c21" have Z-AUC under 0.9?
// result fulfilled

// query Quick check: does "COc1cc2c(cc1OC)CN(CCc1ccc(NC(=O)c3cc(OC)c(OC)cc3NC(=O)c3cnc4ccccc4c3)cc1)CC2" have Z-AUC under 0.9?
// result not fulfilled

// query Quick check: does "N[C@H](CSC(c1ccccc1)(c1ccccc1)c1ccccc1)C(=O)O" have Z-AUC under 0.9?
// result fulfilled

* * *

Assay: Quantitative High-Throughput drug screen in 47 multiple myeloma cell lines against the NCATS MIPE library collection: KMS28BM_JCRB cell viability assay (AID 1919874); also: nearly all actives have a fitted effect of over 35% in size
Details: CellTiter-Glo ATP, 48 h; series mostly up to 45.8 µM
Inconclusive results are not listed. Active and inactive are the calls of the source. Calls follow the shape of the dose curve; as a rule, active = well fitted cell-killing curve with a large enough effect; inconclusive = small, poorly fitted or top-dose-only effect, or effect the other way; inactive = no such curve, though single readings can be large or run the other way.
Thanks in advance; please answer with one of these: active, inactive

Worked cases, answers included:
{"MOLECULE": "C=C1C(=O)OC(CCCCCCCC)C1C(=O)O (centres undefined)", "CLASS_NAME": "inactive"}
{"MOLECULE": "Cc1[nH]c(C=C2C(=O)Nc3ccc(S(=O)(=O)Cc4c(Cl)cccc4Cl)cc32)c(C)c1C(=O)N1CCC[C@H]1CN1CCCC1", "CLASS_NAME": "active"}

Read the next record carefully.
// query What call does the record list for "CC(C)C(=O)Oc1ccc(CO)cc1[C@H](CCN(C(C)C)C(C)C)c1ccccc1" ?
// result inactive

* * *

Assay: Quantitative High-Throughput drug screen in 47 multiple myeloma cell lines against the NCATS MIPE library collection: KMM1_JCRB cell viability assay (AID 1918960); also: nearly all actives have a fitted effect of over 30% in size
Details: KMM1 myeloma viability, CellTiter-Glo ATP luminescence, 48 h; series mostly up to 45.8 µM
Results filed as inconclusive are left out. Active and inactive are the calls of the source. Calls follow the shape of the dose curve; as a rule, active = well fitted cell-killing curve with a large enough effect; inconclusive = small, poorly fitted or top-dose-only effect, or effect the other way; inactive = no such curve, though single readings can be large or run the other way.
Thanks in advance; please answer with one of these: active, inactive

{"MOLECULE": "O=C(CCc1ccc(O)cc1)c1c(O)cc(O)cc1O[C@@H]1O[C@H](CO)[C@H](O)[C@H](O)[C@H]1O", "CLASS_NAME": "inactive"}
{"MOLECULE": "O=c1cc(N2CCOCC2)oc2c(-c3cccc4c3sc3ccccc34)cccc12", "CLASS_NAME": "active"}
{"MOLECULE": "NC(CO)(CO)CCc1ccc(Sc2cccc(OCc3ccccc3)c2)cc1Cl", "CLASS_NAME": "active"}

// query What call does the record list for C[N+]1(C)[C@@H]2CC(OC(=O)[C@H](CO)c3ccccc3)C[C@H]1[C@H]1O[C@@H]12 (stereo partly drawn) ?
// result inactive

// query What call does the record list for "CC#CCn1c(N2CCC[C@@H](N)C2)nc2c1c(=O)n(Cc1nc(C)c3ccccc3n1)c(=O)n2C" ?
// result inactive

// query What call does the record list for "CC[C@@H]1C=C(C)C[C@H](C)C[C@H](OC)[C@H]2O[C@@](O)(C(=O)C(=O)N3CCCC[C@@H]3C(=O)O[C@H](C(C)=C[C@@H]3CC[C@H](Cl)[C@H](OC)C3)[C@H](C)[C@@H](O)CC1=O)[C@H](C)C[C@H]2OC" ?
// result active

// query What call does the record list for "Clc1ccc(-c2nc3sccn3c2C=NOCc2ccc(Cl)c(Cl)c2)cc1" ?
// result inactive

// query What call does the record list for "O=C(Nc1ccccc1-c1cn2c(CN3CCNCC3)csc2n1)c1cnc2ccccc2n1" ?
// result inactive

// query What call does the record list for "COCCCCC(=NOCCN)c1ccc(C(F)(F)F)cc1" ?
// result inactive

// query What call does the record list for "CC(C)C(=O)Nc1ncc(-c2cc(C(F)F)nn2-c2c(Cl)cccc2Cl)s1" ?
// result active

// query What call does the record list for "O=C(O)c1ccccc1C(=O)Nc1ccc(-c2ccccc2)cc1" ?
// result inactive
